# target.or.test.system: Anti-CD28 Fab (SEQ ID NOs: 696, 697)
# Sequence (VH, as listed by the source, chain 1 of 2): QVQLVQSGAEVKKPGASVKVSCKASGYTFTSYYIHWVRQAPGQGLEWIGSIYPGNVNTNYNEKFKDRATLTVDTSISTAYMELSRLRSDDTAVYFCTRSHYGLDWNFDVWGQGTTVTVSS
# Sequence (VL, as listed by the source, chain 2 of 2): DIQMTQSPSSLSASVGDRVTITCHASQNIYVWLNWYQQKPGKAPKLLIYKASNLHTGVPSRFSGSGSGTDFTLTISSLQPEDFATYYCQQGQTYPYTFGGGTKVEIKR
# protocol.text: phage binding ELISA; biotinylated anti-CD28 Fab on neutravidin plate, clonal phage supernatant, anti-M13 HRP;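 note: crude clonal phage supernatants screened after wells were preincubated either with CD28 antigen in blocking buffer or with blocking buffer only, phage added without washing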
readout: Anti-CD28 Fab (SEQ ID NOs: 696, 697) signal

INSERT INTO results (binder, measured_result) VALUES
  ('YCQGHLPIYMEKCL [Phage-583]', 2.24),
  ('YCQGHLPEYMNKCL [Phage-581]', 2.24),
  ('YCEGHLPEYMQKCM [Phage-587]', 2.23),
  ('YCDGHSMEYMSKCL [Phage-590]', 2.22),
  ('YCEGHLPMYMDKCL [Phage-591]', 2.22),
  ('YCDGHLPQYMNKCL [Phage-585]', 2.23),
  ('YCAGHLPEYMEKCL [Phage-579]', 2.24),
  ('YCDGHSAEYMAKCL [Phage-588]', 2.23),
  ('YCDGHSQEYMAKCL [Phage-582]', 2.24);
